# System Under Test: Voltage-dependent T-type calcium channel subunit alpha-1H (Homo sapiens, UniProt O95180)
# Sequence (O95180 whole entry): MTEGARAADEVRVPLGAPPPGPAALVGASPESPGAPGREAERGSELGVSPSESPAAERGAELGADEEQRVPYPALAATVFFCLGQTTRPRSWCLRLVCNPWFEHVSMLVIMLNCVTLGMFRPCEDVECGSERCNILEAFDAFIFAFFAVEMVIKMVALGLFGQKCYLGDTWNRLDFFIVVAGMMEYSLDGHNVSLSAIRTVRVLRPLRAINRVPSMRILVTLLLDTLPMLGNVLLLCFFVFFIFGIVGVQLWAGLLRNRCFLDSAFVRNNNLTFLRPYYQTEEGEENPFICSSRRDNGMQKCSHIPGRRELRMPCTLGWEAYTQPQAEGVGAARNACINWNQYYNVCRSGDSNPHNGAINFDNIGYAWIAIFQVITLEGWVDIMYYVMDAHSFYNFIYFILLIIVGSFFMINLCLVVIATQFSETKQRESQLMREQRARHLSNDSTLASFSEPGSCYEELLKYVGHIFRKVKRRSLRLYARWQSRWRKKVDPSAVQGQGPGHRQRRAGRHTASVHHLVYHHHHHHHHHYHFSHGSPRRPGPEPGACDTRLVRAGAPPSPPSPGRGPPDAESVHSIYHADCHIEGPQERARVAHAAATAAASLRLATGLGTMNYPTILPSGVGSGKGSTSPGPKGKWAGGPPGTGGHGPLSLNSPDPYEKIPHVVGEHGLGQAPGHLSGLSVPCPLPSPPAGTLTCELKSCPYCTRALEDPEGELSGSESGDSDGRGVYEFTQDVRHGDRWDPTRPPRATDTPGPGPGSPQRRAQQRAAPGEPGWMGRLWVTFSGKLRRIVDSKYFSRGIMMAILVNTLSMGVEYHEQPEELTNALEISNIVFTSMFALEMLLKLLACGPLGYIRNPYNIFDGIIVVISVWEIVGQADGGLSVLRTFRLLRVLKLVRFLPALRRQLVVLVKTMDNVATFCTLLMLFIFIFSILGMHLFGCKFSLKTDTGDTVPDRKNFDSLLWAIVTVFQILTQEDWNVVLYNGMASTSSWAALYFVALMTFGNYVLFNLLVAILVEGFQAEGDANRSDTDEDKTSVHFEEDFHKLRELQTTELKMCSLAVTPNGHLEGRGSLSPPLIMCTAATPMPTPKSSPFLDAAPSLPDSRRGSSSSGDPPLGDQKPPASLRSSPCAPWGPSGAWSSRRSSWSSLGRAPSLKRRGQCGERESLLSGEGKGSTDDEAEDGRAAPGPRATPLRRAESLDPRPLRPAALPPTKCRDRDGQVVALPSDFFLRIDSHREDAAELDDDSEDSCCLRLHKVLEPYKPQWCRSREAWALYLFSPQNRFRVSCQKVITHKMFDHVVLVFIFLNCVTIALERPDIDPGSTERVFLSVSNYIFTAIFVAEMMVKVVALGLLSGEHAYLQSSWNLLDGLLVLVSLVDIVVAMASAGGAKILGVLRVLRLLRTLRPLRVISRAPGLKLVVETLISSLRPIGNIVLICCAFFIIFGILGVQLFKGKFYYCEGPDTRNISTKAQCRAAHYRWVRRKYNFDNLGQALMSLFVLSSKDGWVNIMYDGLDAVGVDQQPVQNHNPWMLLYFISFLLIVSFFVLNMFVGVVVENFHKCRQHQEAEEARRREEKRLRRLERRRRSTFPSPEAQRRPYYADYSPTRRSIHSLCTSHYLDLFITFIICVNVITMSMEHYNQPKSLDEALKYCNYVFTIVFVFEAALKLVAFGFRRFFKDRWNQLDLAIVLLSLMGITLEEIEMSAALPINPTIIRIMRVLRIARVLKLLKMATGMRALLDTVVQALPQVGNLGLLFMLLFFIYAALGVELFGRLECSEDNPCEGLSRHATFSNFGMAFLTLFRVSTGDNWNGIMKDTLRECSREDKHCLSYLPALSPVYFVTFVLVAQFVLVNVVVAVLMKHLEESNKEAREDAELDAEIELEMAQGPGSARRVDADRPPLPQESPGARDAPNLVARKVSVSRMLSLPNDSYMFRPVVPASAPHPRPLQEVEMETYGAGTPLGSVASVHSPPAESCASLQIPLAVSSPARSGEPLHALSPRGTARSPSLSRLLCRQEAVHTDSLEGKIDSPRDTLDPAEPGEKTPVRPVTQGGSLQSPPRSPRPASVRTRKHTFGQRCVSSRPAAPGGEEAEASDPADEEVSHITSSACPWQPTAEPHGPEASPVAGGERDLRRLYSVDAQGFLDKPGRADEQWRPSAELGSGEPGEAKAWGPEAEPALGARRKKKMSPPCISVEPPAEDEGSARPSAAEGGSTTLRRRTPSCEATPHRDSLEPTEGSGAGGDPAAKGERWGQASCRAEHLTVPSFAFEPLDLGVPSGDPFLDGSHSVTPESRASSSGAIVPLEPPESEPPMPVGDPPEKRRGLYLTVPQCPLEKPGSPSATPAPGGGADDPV
# Assay Summary: Channel blocking activity at recombinant human CaV 3.2 channel expressed in HEK293 cells assessed as inhibition of Ca2+ flux preincubated for 3 mins followed by CaCl2 addition by fluo-4 dye-based FLIPR assay
pIC50: −log10 of the molar value.
Note to self: values exactly at 7 are T. So pIC50 at or above 7 is T, below is F.

query: Check the entry COc1cc2c(cc1F)N(Cc1ccccc1)C[C@@H](C)N(C(=O)Nc1cccnc1)[C@H]2C (racemic) : does pIC50 equal or exceed 7?
result: F

query: Check the entry C[C@@H]1CN(Cc2ccccc2)c2cnccc2[C@H](C)N1C(=O)NCc1ccccc1 (racemic) : does pIC50 equal or exceed 7?
result: F

query: Check the entry COc1ccc2c(c1)[C@H](C)N(C(=O)Nc1cccnc1)[C@H](C)CN2Cc1ccccc1 (racemic) : does pIC50 equal or exceed 7?
result: F

query: Check the entry C[C@@H]1CN(Cc2ccccc2)c2ccccc2[C@H](C)N1CC1CCOCC1 (racemic) : does pIC50 equal or exceed 7?
result: F

query: Check the entry `O=C(NCc1ccccc1)N1CCN(Cc2ccccc2)c2ccccc2C1` : does pIC50 equal or exceed 7?
result: F

query: Check the entry COc1ccc(CNC(=O)N2[C@H](C)CN(CCC(C)C)c3cnccc3[C@@H]2C)cc1 (racemic) : does pIC50 equal or exceed 7?
result: T

query: Check the entry C[C@@H]1CN(Cc2ccccc2)c2c(cnn2C)[C@H](C)N1C(=O)NCc1ccccc1 (racemic) : does pIC50 equal or exceed 7?
result: F

query: Check the entry C[C@@H]1CN(Cc2ccccc2)c2cc(Br)ccc2[C@H](C)N1C(=O)Nc1cccnc1 (racemic) : does pIC50 equal or exceed 7?
result: F

query: Check the entry C[C@@H]1CN(Cc2cccc(C(F)(F)F)n2)c2ccccc2[C@H](C)N1C(=O)NCc1ccccc1 (racemic) : does pIC50 equal or exceed 7?
result: T

query: Check the entry COc1cccc2c1N(Cc1ccccc1)C[C@@H](C)N(C(=O)Nc1cccnc1)[C@H]2C (racemic) : does pIC50 equal or exceed 7?
result: F

query: Check the entry C[C@@H]1CN(C(=O)NCc2ccccc2)[C@@H](C)c2ccccc2N1Cc1ccccc1 (racemic) : does pIC50 equal or exceed 7?
result: F

query: Check the entry C[C@@H]1CNc2ccccc2[C@H](C)N1C(=O)NCc1ccccc1 (racemic) : does pIC50 equal or exceed 7?
result: F

query: Check the entry C[C@@H]1CN(Cc2cccnc2F)c2ccccc2[C@H](C)N1C(=O)NCc1ccccc1 (racemic) : does pIC50 equal or exceed 7?
result: T

query: Check the entry [2H]C([2H])(c1ccccc1)N1C[C@@H](C)N(C(=O)Nc2cccnc2)[C@@H](C)c2ccncc21 (racemic) : does pIC50 equal or exceed 7?
result: F

query: Check the entry `C[C@@H]1CN(Cc2ccccc2)c2ccccc2[C@H](C)N1C(=O)NCc1ccccc1` : does pIC50 equal or exceed 7?
result: T

* * *

# Assay Summary: Tmax in Wistar rat at 100 mg/kg administered through oral gavage by LC-MS-MS analysis
# Type: ADME, organism-based
# Test Context: in vivo
Quantity Kind: Tmax (min)
Give the value in min but do not write min after it.

Value of measured Tmax for the entry C[C@@H]1CN(Cc2ccccc2)c2cnccc2[C@H](C)N1C(=O)NCc1ccccc1 (racemic) : 30

* * *

Provide the recorded microsomal CLint at 1 µM for the entries that follow.
# Assay Summary: Intrinsic clearance in human liver microsomes at 1 uM up to 15 mins in presence of NADPH by LC-MS-MS analysis
# Type: ADME
# Test Context: read-out: CLH
Give the value in µL/min/mg but do not write µL/min/mg after it.

Value of measured microsomal CLint at 1 µM for the entry C[C@@H]1CN(Cc2ccccc2F)c2cnccc2[C@H](C)N1C(=O)NCc1ccccc1 (racemic) : 179

Value of measured microsomal CLint at 1 µM for the entry C[C@@H]1CN(Cc2ccccc2)c2ccccc2[C@H](C)N1C(=O)C1CCOCC1 (racemic) : 1160

Value of measured microsomal CLint at 1 µM for the entry C[C@@H]1CN(CC2CCCCO2)c2ccccc2[C@H](C)N1C(=O)Nc1cccnc1 (mixture of isomers) : 720

Value of measured microsomal CLint at 1 µM for the entry C[C@@H]1CNc2ccccc2[C@H](C)N1C(=O)NCc1ccccc1 (racemic) : 59

* * *

# System Under Test: Voltage-dependent T-type calcium channel subunit alpha-1I (Homo sapiens, UniProt Q9P0X4)
# Sequence (Q9P0X4 whole entry): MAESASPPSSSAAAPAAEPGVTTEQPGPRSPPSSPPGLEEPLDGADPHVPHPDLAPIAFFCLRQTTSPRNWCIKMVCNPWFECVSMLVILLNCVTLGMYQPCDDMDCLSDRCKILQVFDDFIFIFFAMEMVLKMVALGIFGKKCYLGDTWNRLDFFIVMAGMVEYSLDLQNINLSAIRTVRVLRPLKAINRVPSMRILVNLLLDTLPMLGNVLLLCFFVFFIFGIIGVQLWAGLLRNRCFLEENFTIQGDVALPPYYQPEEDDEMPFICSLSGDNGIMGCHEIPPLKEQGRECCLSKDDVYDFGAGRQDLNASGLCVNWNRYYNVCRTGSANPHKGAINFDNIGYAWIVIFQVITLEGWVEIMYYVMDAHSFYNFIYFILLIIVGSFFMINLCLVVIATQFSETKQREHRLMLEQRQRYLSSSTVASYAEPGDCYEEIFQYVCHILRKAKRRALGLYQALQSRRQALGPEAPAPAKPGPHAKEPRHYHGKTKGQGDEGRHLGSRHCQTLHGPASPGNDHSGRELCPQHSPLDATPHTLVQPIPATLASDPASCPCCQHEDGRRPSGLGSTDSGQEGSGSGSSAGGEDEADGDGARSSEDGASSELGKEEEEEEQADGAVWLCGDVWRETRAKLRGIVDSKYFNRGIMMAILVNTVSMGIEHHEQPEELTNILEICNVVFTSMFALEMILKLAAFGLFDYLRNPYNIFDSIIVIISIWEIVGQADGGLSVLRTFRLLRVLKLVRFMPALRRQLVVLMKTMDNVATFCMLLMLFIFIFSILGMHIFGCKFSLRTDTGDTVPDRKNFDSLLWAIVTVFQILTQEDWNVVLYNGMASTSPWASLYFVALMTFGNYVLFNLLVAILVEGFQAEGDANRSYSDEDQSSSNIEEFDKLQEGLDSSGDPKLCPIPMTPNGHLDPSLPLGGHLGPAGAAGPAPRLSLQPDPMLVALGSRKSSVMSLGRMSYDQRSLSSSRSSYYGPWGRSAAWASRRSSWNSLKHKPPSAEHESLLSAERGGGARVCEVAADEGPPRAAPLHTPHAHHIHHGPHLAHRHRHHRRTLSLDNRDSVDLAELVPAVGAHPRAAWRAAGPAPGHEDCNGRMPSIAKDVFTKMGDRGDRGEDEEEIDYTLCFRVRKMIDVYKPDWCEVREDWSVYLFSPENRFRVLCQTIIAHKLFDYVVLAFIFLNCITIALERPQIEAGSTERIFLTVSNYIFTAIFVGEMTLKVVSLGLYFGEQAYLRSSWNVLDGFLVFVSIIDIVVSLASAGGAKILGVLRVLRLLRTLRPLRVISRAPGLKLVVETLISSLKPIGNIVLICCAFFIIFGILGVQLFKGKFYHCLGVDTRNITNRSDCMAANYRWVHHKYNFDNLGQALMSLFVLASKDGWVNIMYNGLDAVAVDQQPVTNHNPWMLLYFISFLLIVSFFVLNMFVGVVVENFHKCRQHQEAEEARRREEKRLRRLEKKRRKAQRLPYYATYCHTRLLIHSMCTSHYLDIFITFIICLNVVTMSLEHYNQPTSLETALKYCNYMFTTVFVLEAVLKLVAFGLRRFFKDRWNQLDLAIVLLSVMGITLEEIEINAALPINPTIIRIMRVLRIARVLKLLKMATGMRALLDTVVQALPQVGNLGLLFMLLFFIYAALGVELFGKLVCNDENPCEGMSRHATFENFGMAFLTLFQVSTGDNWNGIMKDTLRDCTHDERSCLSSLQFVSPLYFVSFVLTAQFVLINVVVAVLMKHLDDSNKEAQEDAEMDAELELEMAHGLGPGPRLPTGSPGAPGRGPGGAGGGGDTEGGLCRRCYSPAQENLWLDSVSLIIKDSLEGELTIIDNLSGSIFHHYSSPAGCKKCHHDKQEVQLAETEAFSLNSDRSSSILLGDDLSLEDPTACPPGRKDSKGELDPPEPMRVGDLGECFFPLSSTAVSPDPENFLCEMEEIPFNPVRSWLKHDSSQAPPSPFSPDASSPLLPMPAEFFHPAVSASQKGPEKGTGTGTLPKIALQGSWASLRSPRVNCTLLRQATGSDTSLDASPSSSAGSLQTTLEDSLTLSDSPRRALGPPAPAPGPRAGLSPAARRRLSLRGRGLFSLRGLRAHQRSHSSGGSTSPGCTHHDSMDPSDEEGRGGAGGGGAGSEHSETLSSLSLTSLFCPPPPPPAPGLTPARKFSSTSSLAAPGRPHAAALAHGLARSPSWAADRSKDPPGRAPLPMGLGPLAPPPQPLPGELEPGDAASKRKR
# Assay Summary: Channel blocking activity at recombinant human CaV 3.3 channel expressed in HEK293 cells assessed as inhibition of Ca2+ flux preincubated for 3 mins followed by CaCl2 addition by fluo-4 dye-based FLIPR assay
# Type: cell-based
Please note: IC50 exactly at 10 nM is f. Only values below 10 nM get t.

query: Does this compound meet the criterion IC50 < 10 nM? C[C@@H]1CN(Cc2ccccc2)c2cccc(F)c2[C@H](C)N1C(=O)NC1COC1 (racemic)
result: f

query: Does this compound meet the criterion IC50 < 10 nM? C[C@@H]1CN(Cc2cnc(C(F)(F)F)s2)c2ccccc2[C@H](C)N1C(=O)CCc1cccnc1 (racemic)
result: f

query: Does this compound meet the criterion IC50 < 10 nM? C[C@@H]1CN(Cc2ccccc2)c2cncc(F)c2[C@H](C)N1C(=O)NCc1ccccc1 (racemic)
result: t

query: Does this compound meet the criterion IC50 < 10 nM? C[C@@H]1CN(Cc2ccccc2F)c2cnccc2[C@H](C)N1C(=O)NCc1ccccc1 (racemic)
result: f

query: Does this compound meet the criterion IC50 < 10 nM? C[C@@H]1CN(Cc2ccccc2)c2nnccc2[C@H](C)N1C(=O)NCc1ccccc1 (racemic)
result: f

query: Does this compound meet the criterion IC50 < 10 nM? C[C@@H]1CN(Cc2ccccc2)c2c(cnn2C)[C@H](C)N1C(=O)NCc1ccccc1 (racemic)
result: f

query: Does this compound meet the criterion IC50 < 10 nM? CC(C)CCN1C[C@@H](C)N(C(=O)CCc2cccnc2)[C@@H](C)c2c(F)cccc21 (racemic)
result: f

query: Does this compound meet the criterion IC50 < 10 nM? C[C@@H]1CN(Cc2cnc(C(F)(F)F)s2)c2ccccc2[C@H](C)N1C(=O)NCc1ccccc1 (racemic)
result: t

query: Does this compound meet the criterion IC50 < 10 nM? Cc1ccc2c(c1)N(Cc1ccccc1)C[C@@H](C)N(C(=O)Nc1cccnc1)[C@H]2C (racemic)
result: f

query: Does this compound meet the criterion IC50 < 10 nM? `C[C@@H]1CN(Cc2ccccc2)c2cnccc2[C@H](C)N1C(=O)NCc1ccccc1`
result: f

* * *

# Assay Summary: AUC in Wistar rat at 100 mg/kg administered through oral gavage up to 24 hrs by LC-MS-MS analysis
# Format: ADME, organism-based
# Design: dose 100 mg/kg, time < 24 hr, route oral
# Test Context: in vivo
Quantity Kind: AUC at 24 h

Value of measured AUC at 24 h for the entry C[C@@H]1CN(Cc2ccccc2)c2cnccc2[C@H](C)N1C(=O)NCc1ccccc1 (racemic) : 21800 ng·h/mL

* * *

# Assay Summary: Solubility of the compound in fast state simulated intestinal fluid
# Format: ADME
# Test Context: fasted state simulated intestinal fluid (FaSSIF)
Quantity Kind: solubility (mg/mL)
Give the value in mg/mL but do not write mg/mL after it.

Value of measured solubility for the entry C[C@@H]1CN(Cc2ccccc2)c2ccccc2[C@H](C)N1C(=O)NCc1ccccc1 (racemic) : 0.006

Value of measured solubility for the entry COCCC(=O)N1[C@H](C)CN(Cc2ccccc2)c2ccccc2[C@@H]1C (racemic) : 0.058

Value of measured solubility for the entry C[C@@H]1CN(Cc2ccccc2)c2cnccc2[C@H](C)N1C(=O)NCc1ccccc1 (racemic) : 0.089

* * *

# Assay Summary: Intrinsic clearance in human liver microsomes at 1 uM up to 15 mins in presence of NADPH by LC-MS-MS analysis
# Format: ADME
# Test Context: read-out: CLH
Quantity Kind: microsomal CLint at 1 µM (µL/min/mg)
Give the value in µL/min/mg but do not write µL/min/mg after it.

Value of measured microsomal CLint at 1 µM for the entry C[C@@H]1CN(Cc2ccccc2)c2cc(F)cc(F)c2[C@H](C)N1C(=O)Nc1cccnc1 (racemic) : 873

Value of measured microsomal CLint at 1 µM for the entry C[C@@H]1CN(Cc2ccccc2)c2cnccc2[C@H](C)N1C(=O)CCc1ccc(F)cc1 (racemic) : 907

Value of measured microsomal CLint at 1 µM for the entry C[C@@H]1CN(Cc2ccccc2)c2cncc(F)c2[C@H](C)N1C(=O)NCc1ccccc1 (racemic) : 185

Value of measured microsomal CLint at 1 µM for the entry [2H]C([2H])(c1ccccc1)N1C[C@@H](C)N(C(=O)Nc2cccnc2)[C@@H](C)c2ccccc21 (racemic) : 1110

Value of measured microsomal CLint at 1 µM for the entry COc1ccc(CNC(=O)N2[C@H](C)CN(Cc3ccccc3)c3cnccc3[C@@H]2C)cc1 (racemic) : 189

Value of measured microsomal CLint at 1 µM for the entry C[C@@H]1CN(Cc2ccccc2)c2ccccc2[C@H](C)N1C(=O)NC1COC1 (racemic) : 539

Value of measured microsomal CLint at 1 µM for the entry C[C@@H]1CN(Cc2ccccc2)c2cccc(F)c2[C@H](C)N1C(=O)CCc1cccnc1 (racemic) : 562

Value of measured microsomal CLint at 1 µM for the entry C[C@@H]1CN(Cc2ccccc2)c2cnccc2[C@H](C)N1C(=O)Nc1cccnc1 (racemic) : 93

Value of measured microsomal CLint at 1 µM for the entry CC(C)CCN1C[C@@H](C)N(C(=O)CCc2cccnc2)[C@@H](C)c2c(F)cccc21 (racemic) : 357

Value of measured microsomal CLint at 1 µM for the entry C[C@@H]1CN(Cc2cnc(C(F)(F)F)s2)c2cccc(F)c2[C@H](C)N1C(=O)CCc1cccnc1 (racemic) : 193

Value of measured microsomal CLint at 1 µM for the entry COc1ccc(CNC(=O)N2[C@H](C)CN(Cc3ccc(C(F)(F)F)o3)c3cnccc3[C@@H]2C)cc1 (racemic) : 119

Value of measured microsomal CLint at 1 µM for the entry CC(C)CCN1C[C@@H](C)N(C(=O)CCc2cccnc2)[C@@H](C)c2ccccc21 (racemic) : 412

Value of measured microsomal CLint at 1 µM for the entry C[C@@H]1CN(Cc2ccccc2)c2nc(Cl)ccc2[C@H](C)N1C(=O)NCc1ccccc1 (racemic) : 1000

Value of measured microsomal CLint at 1 µM for the entry C[C@@H]1CN(Cc2cnc(C(F)(F)F)s2)c2ccccc2[C@H](C)N1C(=O)CCc1cccnc1 (racemic) : 332

Value of measured microsomal CLint at 1 µM for the entry C[C@@H]1CN(CCOC(C)(C)C)c2ccccc2[C@H](C)N1C(=O)Nc1cccnc1 (racemic) : 1230

Value of measured microsomal CLint at 1 µM for the entry C[C@@H]1CN(Cc2cccc(F)c2F)c2cnccc2[C@H](C)N1C(=O)NCc1ccccc1 (racemic) : 212

Value of measured microsomal CLint at 1 µM for the entry C[C@@H]1CN(Cc2ccccc2)c2cncc(F)c2[C@H](C)N1C(=O)Nc1cccnc1 (racemic) : 83

Value of measured microsomal CLint at 1 µM for the entry CC(C)CCN1C[C@@H](C)N(C(=O)Nc2cccnc2)[C@@H](C)c2ccncc21 (racemic) : 30

Value of measured microsomal CLint at 1 µM for the entry C[C@@H]1CN(Cc2ccccc2)c2nc(C(F)(F)F)ccc2[C@H](C)N1C(=O)NCc1ccccc1 (racemic) : 531

Value of measured microsomal CLint at 1 µM for the entry C[C@@H]1CN(CC2CCCC2)c2ccccc2[C@H](C)N1C(=O)Nc1cccnc1 (racemic) : 1150
